Target: T1, 4H3057-bH
T1 chain: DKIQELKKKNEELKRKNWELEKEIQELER
Test: two-hybrid library CCNG1;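 also: natural log of median RNA to DNA barcode read ratio; higher means stronger binding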
For each entry below, report its interaction score value.

Record summary for DKIQELKKKIEELERENWELEKKNQELER [4H2839-bH] : reported interaction score = 0.0652

Record summary for DKIQELKKENEELEREIWELEKENQELKR [4H2692-bH] : reported interaction score = -0.0522

Record summary for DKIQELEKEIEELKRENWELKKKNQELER [4H2143-bH] : reported interaction score = 0.0434

Record summary for DKIQELKKKIEELKRKIWELEKENQELER [4H2915-bH] : reported interaction score = -0.637

Record summary for DKIQELKKKNEELKRKNWELEKEIQELER [4H3057-bH] : reported interaction score = -0.611

Record summary for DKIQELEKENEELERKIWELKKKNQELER [4H2223-bH] : reported interaction score = 0.455

Record summary for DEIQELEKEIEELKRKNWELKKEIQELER [4H121-bH] : reported interaction score = 0.547
